target: human IDO1 protease (Homo sapiens (Human)); assay: Inhibitory activity against human IDO1 protease (recombinant enzyme, kynurenine absorbance at 480 nm); settings: recombinant human IDO1, L-Tryptophan substrate, 30 min at 37° C.
Sequence (P14902 whole entry): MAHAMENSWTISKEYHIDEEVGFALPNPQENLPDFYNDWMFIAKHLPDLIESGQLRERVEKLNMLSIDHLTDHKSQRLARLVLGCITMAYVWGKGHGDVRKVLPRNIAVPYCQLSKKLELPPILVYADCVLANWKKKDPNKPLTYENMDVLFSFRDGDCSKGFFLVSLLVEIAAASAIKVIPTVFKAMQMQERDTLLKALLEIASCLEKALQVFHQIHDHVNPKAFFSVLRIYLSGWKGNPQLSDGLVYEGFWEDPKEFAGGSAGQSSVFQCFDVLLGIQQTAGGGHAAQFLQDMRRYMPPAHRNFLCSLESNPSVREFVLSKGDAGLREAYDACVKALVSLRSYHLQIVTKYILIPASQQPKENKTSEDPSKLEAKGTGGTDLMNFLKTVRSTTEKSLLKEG
Categorize each record by its IC50 using L: < 40 nM; M: ≥ 40 nM and < 60 nM; H: ≥ 60 nM

compound	group label
NS(=O)(=O)NC[C@H]1CC[C@H](Nc2nonc2C(=NO)Nc2ccc(F)c(Br)c2)CC1	L
NS(=O)(=O)N[C@H]1CC[C@@H](Nc2nonc2C(=NO)Nc2ccc(F)c(Br)c2)CC1	L
NS(=O)(=O)NC1CCN(Nc2nonc2C(=NO)Nc2ccc(F)c(Br)c2)CC1	H
NS(=O)(=O)NC1CCC(Nc2nonc2C(=NO)Nc2ccc(F)c(Br)c2)C1 (stereo not drawn)	H
NS(=O)(=O)NCC1CCCC(Nc2nonc2C(=NO)Nc2ccc(F)c(Br)c2)C1 (stereo not drawn)	H
NS(=O)(=O)NCCC1CCC(CCNc2nonc2C(=NO)Nc2ccc(F)c(Br)c2)CC1 (stereo not drawn)	M

Class label required: NS(=O)(=O)NC1CCCC(CNc2nonc2C(=NO)Nc2ccc(F)c(Br)c2)C1 (stereo not drawn)
M

Class label required: NS(=O)(=O)NCC1CCC(CNc2nonc2C(=NO)Nc2ccc(F)c(Br)c2)CC1 (stereo not drawn)
M

Class label required: NS(=O)(=O)NCC[C@H]1CC[C@H](Nc2nonc2C(=NO)Nc2ccc(F)c(Br)c2)CC1
M

Class label required: NS(=O)(=O)NC1CCC(CCNc2nonc2C(=NO)Nc2ccc(F)c(Br)c2)CC1 (stereo not drawn)
L

Class label required: NS(=O)(=O)N[C@H]1CC[C@H](CNc2nonc2C(=NO)Nc2ccc(F)c(Br)c2)CC1
L

Class label required: NS(=O)(=O)N[C@H]1CC[C@H](Nc2nonc2C(=NO)Nc2ccc(F)c(Br)c2)CC1
L

Class label required: NS(=O)(=O)NCC1CCC(Nc2nonc2C(=NO)Nc2ccc(F)c(Br)c2)C1 (stereo not drawn)
H
